# experiment-description: AUC (0 to infinity) in C57 mouse at 1 mg/kg, iv and 10 mg/kg, po
# Format: ADME, organism-based
# particulars: plasma
quantity-kind: AUC(0-inf) (ng·h/mL)

P. Fc1ccc(-c2c3cccc(C(F)(F)F)c3nn2Cc2ccccc2F)cc1
Q. FC(F)(F)c1cccc2c(-c3ccccc3)n(Cc3ccccc3)nc12
Query: Of P and Q , which one carries the higher reported AUC(0-inf)? Write down the label of the entry you select.
Result: P
(P: 3100 ng·h/mL, Q: 321 ng·h/mL)

###

# experiment-description: Tmax in C57 mouse at 1 mg/kg, iv and 10 mg/kg, po
# Format: ADME, organism-based
# particulars: in vivo
quantity-kind: Tmax (min)

I. FC(F)(F)c1cccc2c(-c3ccccc3)n(Cc3ccccc3)nc12
II. Fc1ccc(-c2c3cccc(C(F)(F)F)c3nn2Cc2ccccc2F)cc1
Query: Dear colleague, could you let me know whether I or II has the lower recorded Tmax? Thanks. Write down the label of the entry you select.
Result: I
(I: 15 min, II: 30 min)

###

# System: HepG2
# experiment-description: Effect on SREBP1c gene expression in human HepG2 cells
# Type: functional, cell-based
pEC50: −log10 of the molar value.
quantity-kind: pEC50

Worked examples, 3 molecules total:
O=S(=O)(c1ccccc1)N(CC(F)(F)F)c1ccc(C(O)(C(F)(F)F)C(F)(F)F)cc1 [T091317] ... 7.21
Fc1ccc(-c2c3cccc(C(F)(F)F)c3nn2Cc2ccccc2F)cc1 ... 5.91
O=C(O)Cc1cccc(OCCCN(Cc2cccc(C(F)(F)F)c2Cl)CC(c2ccccc2)c2ccccc2)c1 ... 6.68

1. Fc1ccc(-c2c3cccc(C(F)(F)F)c3nn2Cc2ccc(F)cc2Cl)cc1 [LXR-623]
2. O=C(O)Cc1ccc(COc2cccc(-c3c(Cc4ccccc4)cnc4c(C(F)(F)F)cccc34)c2)cc1
Query: Of 1 and 2 , which one carries the higher reported pEC50? Write down the label of the entry you select.
Result: 2
